Target: T1, APC7524-AA
T1 chain: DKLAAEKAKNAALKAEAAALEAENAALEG
Assay: two-hybrid library CCmax;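 also: natural log of median RNA to DNA barcode read ratio; higher means stronger binding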
Settings: mean of both orientations
measurement.name: interaction score

Assign interaction score to the following record: DELAAIEAKNAALKAENAALEAEAAALEG [APC542-AA]
-2

Give the reported interaction score for this binder. DENAALEAKAAALKAKAAALKAELAAEEG [APC4336-AA]
-1.86

Annotate the binder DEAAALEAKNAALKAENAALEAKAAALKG [APC2543-AA] with its measured interaction score.
-1.63

Identify the reported interaction score for the following entry. DELAAEEAELAAIEAELAANEAELAANEG [APC6088-AA]
-1.52

Annotate the binder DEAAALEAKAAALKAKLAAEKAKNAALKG [APC2375-AA] with its measured interaction score.
-1.49
